The measurements presented in this section are drawn from patent US6552009B2.

Test system: moderate to severe papular-pustular acne
Format: in vivo, human
Conditions: human, in vivo
Property Label: skin irritation

Ask: Dear colleague, please send me the reported skin irritation for CCCCCCCCCCCCCCCC(=O)OC/C=C(C)/C=C/C=C(C)/C=C/C1=C(C)CCCC1(C)C [retinyl palmitate] when you can.
Result: did not

Ask: Dear colleague, please send me the reported skin irritation for CC1=C(/C=C/C(C)=C/C=C/C(C)=C/CO)C(C)(C)CCC1=O [4-oxo-retinol] when you can.
Result: did not

Ask: Dear colleague, please send me the reported skin irritation for C=C1/C(=C\C=C2/CCC[C@]3(C)[C@@H]([C@H](C)CCCC(C)(C)O)CC[C@@H]23)C[C@@H](O)C[C@@H]1O [calcitriol, reference compound] when you can.
Result: caused skin irritation

Ask: Dear colleague, please send me the reported skin irritation for CC1=C(/C=C/C(C)=C/C=C/C(C)=C/C(=O)O)C(C)(C)CCC1 [retinoic acid, reference compound] when you can.
Result: caused skin irritation
